# Tested on: A498 renal
# method: NCI tumour cell line growth inhibition, 48 h
quantity: TGI

>  <compound>
COc1cc(-c2cc(C(=O)N3CCN(C(=O)c4ccccc4NCc4ccco4)CC3)nc3cc(-c4ccccc4)nn23)cc(OC)c1OC

>  <TGI>
> 28.4 µM

$$$$
>  <compound>
Cc1cc(Br)cc(C)c1NC(=O)C(=O)CC(=O)c1sc(-n2nc(-c3ccccc3)cc2-c2ccccc2)nc1C

>  <TGI>
> 100 µM

$$$$
>  <compound>
COc1c(OC(C)=O)ccc(/C=C2\N=C(C)OC2=O)c1[N+](=O)[O-]

>  <TGI>
> 100 µM

$$$$
>  <compound>
O=C(c1ccc(Cl)cc1Cl)N(Cc1cccnc1)C(=S)N(Cc1cccnc1)C(=O)c1ccc(Cl)cc1Cl

>  <TGI>
24.4 µM

$$$$
>  <compound>
ClC(Cl)(Cl)C1CCOC1n1nc2ccccc2n1 (configuration not stated)

>  <TGI>
> 100 µM

$$$$

Ask: Look at this compound and give its reported TGI. CC(=O)OCCC1c2ccccc2-n2nc(-c3ccccc3)c(O)c21 (configuration not stated)
Reply: 36.4 µM

Ask: Look at this compound and give its reported TGI. `O/N=c1/ccn(O)c2ccccc12`
Reply: 1.75 µM

====

# System: LOX IMVI melanoma
# method: NCI tumour cell line growth inhibition, 48 h
quantity: TGI

For orientation, consider the following solved cases.
>  <compound>
Cc1ccc(S(=O)(=O)NC(=O)NC(CO)C(=O)O)cc1 (configuration not stated)

>  <measurement_target>
LOX IMVI melanoma

>  <TGI>
> 100 µM

$$$$
>  <compound>
O=C1CC(=O)N(C2CCCCC2)C(=O)N1c1ccccc1S(=O)(=O)Oc1ccccc1

>  <measurement_target>
LOX IMVI melanoma

>  <TGI>
7.69 µM

$$$$
>  <compound>
COC(=O)[C@]12CC[C@@H](C)[C@H](C)[C@@H]1C1=CC[C@@H]3[C@@]4(C)CC(=O)[C@H](O)[C@@]5(C)COC(=C45)C[C@@]3(C)[C@]1(C)CC2

>  <measurement_target>
LOX IMVI melanoma

>  <TGI>
31.1 µM

$$$$

Ask: Look at this compound and give its reported TGI. Cc1ccc(/C=C2\CN(C)CC3C(c4ccc(C)cc4)=C(C#N)C(=O)NC23)cc1 (configuration not stated)
Reply: > 50 µM

Ask: Look at this compound and give its reported TGI. `CCOC(=O)c1ncoc1[C@H]1COC(C)(C)O1`
Reply: > 100 µM

Ask: Look at this compound and give its reported TGI. `CCCCCCC(=O)C/C(CCC(=O)N(Cc1ccccc1)Cc1ccccc1)=N\Nc1ccc([N+](=O)[O-])cc1[N+](=O)[O-]`
Reply: > 100 µM

Ask: Look at this compound and give its reported TGI. `O=C(O)CN(c1ccc(Cl)cc1)S(=O)(=O)c1ccccc1`
Reply: > 100 µM

Ask: Look at this compound and give its reported TGI. `O=C(Nc1ccncc1)C(=O)c1cn(S(=O)(=O)c2ccc(Br)cc2)c2ccccc12`
Reply: > 100 µM

Ask: Look at this compound and give its reported TGI. COC(=O)C1Cc2c([nH]c3ccccc23)C(c2cccc(O)c2)N1 (configuration not stated)
Reply: > 100 µM

Ask: Look at this compound and give its reported TGI. `O=C1c2ccccc2-c2c1c1ccccc1c(=O)n2CCO`
Reply: > 100 µM

Ask: Look at this compound and give its reported TGI. `COc1cc(-c2cc(C(=O)N3CCN(C(=O)c4ccccc4NCc4ccco4)CC3)nc3cc(-c4ccccc4)nn23)cc(OC)c1OC`
Reply: > 100 µM

Ask: Look at this compound and give its reported TGI. `COc1c(Cl)ccc(Cl)c1C(=O)NNC(=O)c1c(Cl)c(Cl)c(Cl)c(Cl)c1-c1nc2ccc(C(=O)c3ccccc3)cc2[nH]1`
Reply: > 100 µM

====

# Tested on: HS 578T breast
# method: NCI tumour cell line growth inhibition, 48 h
quantity: GI50

>  <compound>
O=C(Nc1ccncc1)C(=O)c1cn(S(=O)(=O)c2ccc(Br)cc2)c2ccccc12

>  <GI50>
> 100 µM

$$$$

Ask: Look at this compound and give its reported GI50. Cc1cc(NC(=O)C2c3ccccc3C(=O)N(CC(C)C)C2c2cccs2)no1 (stereo not drawn)
Reply: 86.7 µM

Ask: Look at this compound and give its reported GI50. `O=[N+]([O-])c1ccc(N/N=C\c2cc(Cl)ccc2O)nc1`
Reply: 7.33 µM

====

Measured TGI by item
# System: SW-620 colon
# method: NCI tumour cell line growth inhibition, 48 h

>  <compound>
COc1ccc(N(C)c2nc(C)nc3ccccc23)cc1

>  <TGI>
> 100 µM

$$$$
>  <compound>
NC(N)=NS(=O)(=O)c1ccc(NC(=O)c2cccc3c(Nc4ccc(S(=O)(=O)N=C(N)N)cc4)c4ccc(Cl)cc4nc23)cc1

>  <TGI>
> 100 µM

$$$$
>  <compound>
Cc1cc(NC(=O)C2c3ccccc3C(=O)N(CC(C)C)C2c2cccs2)no1 (stereo not drawn)

>  <TGI>
> 100 µM

$$$$

Ask: Reported TGI for SW-620 colon, given `CCOC(=O)C1(Cc2ccccc2)Cc2cc3c(cc2C1)CCC3` ?
Reply: > 100 µM

====

# Tested on: UACC-62 melanoma
# method: NCI tumour cell line growth inhibition, 48 h
quantity: TGI

For orientation, consider the following solved cases.
>  <compound>
COC(=O)c1cnc(=O)n(C2CC(O)C(CO)O2)c1 (stereo not drawn)

>  <measurement_target>
UACC-62 melanoma

>  <TGI>
> 100 µM

$$$$
>  <compound>
CSCCC(NCc1c(O)ccc2ccc(=O)oc12)C(=O)O (stereo not drawn)

>  <measurement_target>
UACC-62 melanoma

>  <TGI>
> 100 µM

$$$$
>  <compound>
O=[N+]([O-])c1cccc(N=C2c3ccccc3CN2c2cccc([N+](=O)[O-])c2)c1

>  <measurement_target>
UACC-62 melanoma

>  <TGI>
> 100 µM

$$$$

Ask: Reported TGI for UACC-62 melanoma, given `CNNC1=NS(=O)(=O)c2cc(C)c(Cl)cc2S1` ?
Reply: > 10 µM

Ask: Reported TGI for UACC-62 melanoma, given `S=c1[nH]nc(COc2ccc(Cl)cc2)o1` ?
Reply: > 100 µM

Ask: Reported TGI for UACC-62 melanoma, given `CC1=C2C(=O)O[C@@H](c3ccoc3)[C@]2(C)CCC1=O` ?
Reply: > 100 µM

====

# Test system: SW-620 colon
# method: NCI tumour cell line growth inhibition, 48 h
Measured TGI by item

Ask: Look at this compound and give its reported TGI. `COc1cc(N(CCC#N)CCC#N)ccc1/C(N=Nc1ccc(C)cc1)=N/NC(=O)c1cc(Br)ccc1O`
Reply: > 100 µM

====

# Tested on: UACC-62 melanoma
# method: NCI tumour cell line growth inhibition, 48 h
quantity: TGI

>  <compound>
O=C(O)C(Cc1ccc2c(c1)CCC2)(Cc1ccc2c(c1)CCC2)C(=O)O

>  <TGI>
> 100 µM

$$$$

Ask: Look at this compound and give its reported TGI. `COc1ccc(N(C)c2nc(C)nc3ccccc23)cc1`
Reply: > 49.6 µM

Ask: Look at this compound and give its reported TGI. ClC(Cl)(Cl)C1CCOC1n1nc2ccccc2n1 (configuration not stated)
Reply: > 100 µM

====

Measured TGI by item
# Test system: SW-620 colon
# method: NCI tumour cell line growth inhibition, 48 h

For orientation, consider the following solved cases.
>  <compound>
COc1cc(C2CC(c3cccc(Nc4ccncc4)c3)=NN2c2cc(Cl)cc(Cl)c2)cc(OC)c1OC (stereo not drawn)

>  <measurement_target>
SW-620 colon

>  <TGI>
3.2 µM

$$$$
>  <compound>
Cc1ccc(/C=C2\N=C(N3CCCCC3)NC2=O)cc1

>  <measurement_target>
SW-620 colon

>  <TGI>
> 100 µM

$$$$
>  <compound>
O=C1c2ccccc2-c2c1c1ccccc1c(=O)n2CCO

>  <measurement_target>
SW-620 colon

>  <TGI>
> 100 µM

$$$$
>  <compound>
N=C(/C=C/c1ccc(-c2cn3cc(/C=C/C(=N)N4CCCC4)ccc3n2)cc1)N1CCCC1

>  <measurement_target>
SW-620 colon

>  <TGI>
> 100 µM

$$$$
>  <compound>
O=C(CCCN1CCC2(CC1)C(=O)NC(=O)N2c1ccccc1)c1ccc(F)cc1

>  <measurement_target>
SW-620 colon

>  <TGI>
> 100 µM

$$$$

Ask: Look at this compound and give its reported TGI. `CC(=O)Nc1ccc(Nc2cc(=O)n(C)c(=O)[nH]2)cc1`
Reply: > 100 µM

Ask: Look at this compound and give its reported TGI. `O=[N+]([O-])c1ccc(-c2ccc(/C=N/n3c(-c4ccc(Cl)cc4)n[nH]c3=S)o2)cc1`
Reply: > 68.5 µM

Ask: Look at this compound and give its reported TGI. `Cn1c(=O)n2n(c1=O)Cc1cccc3cccc(c13)C2`
Reply: > 100 µM
